TARGET_DESC: UniProt:P21397
Sequence (P21397 whole entry): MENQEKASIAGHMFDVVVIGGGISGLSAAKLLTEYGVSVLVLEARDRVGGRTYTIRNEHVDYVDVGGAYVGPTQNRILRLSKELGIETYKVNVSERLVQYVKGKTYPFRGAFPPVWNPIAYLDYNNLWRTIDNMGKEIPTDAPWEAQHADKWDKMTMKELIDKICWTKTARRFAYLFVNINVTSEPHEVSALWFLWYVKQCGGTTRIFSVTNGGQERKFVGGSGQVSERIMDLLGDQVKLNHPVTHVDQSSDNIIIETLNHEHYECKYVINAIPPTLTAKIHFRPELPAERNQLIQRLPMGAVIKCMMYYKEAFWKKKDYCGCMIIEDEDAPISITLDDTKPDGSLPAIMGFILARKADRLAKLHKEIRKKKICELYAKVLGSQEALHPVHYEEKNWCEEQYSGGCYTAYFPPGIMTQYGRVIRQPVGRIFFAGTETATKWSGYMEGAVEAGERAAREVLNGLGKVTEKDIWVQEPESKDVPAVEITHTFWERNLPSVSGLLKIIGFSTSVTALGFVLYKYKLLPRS
Format: functional
QUANTITY: AC50

# MOLECULE, VALUE
rows = [
    ("NCC(CC(=O)O)c1ccccc1 (centres undefined)", "> 30 µM"),
    ("CC(=O)O[C@]1(C(C)=O)CC[C@H]2[C@@H]3C=C(Cl)C4=CC(=O)CC[C@]4(C)[C@H]3CC[C@@]21C [CHLORMADINONE ACETATE]", "> 30 µM"),
    ("COc1cc2nccc(Oc3ccc(NC(=O)C4(C(=O)Nc5ccc(F)cc5)CC4)cc3)c2cc1OC [CABOZANTINIB]", "25.4 µM"),
    ("C[N+](C)(C)C[C@H](O)CC(=O)[O-]", "> 30 µM"),
    ("Nc1c2ccccc2nc2ccccc12", "> 30 µM"),
]

Sample "N[C@@H](CO)C(=O)O" , system: UniProt:P21397. Its AC50 is > 10 µM

Sample "CC[C@H]1OC(=O)[C@H](C)C(=O)[C@H](C)[C@@H](O[C@@H]2O[C@H](C)C[C@H](N(C)C)[C@H]2O)[C@](C)(OC)C[C@@H](C)C(=O)[C@H](C)[C@H]2N(CCCCn3cnc(-c4cccnc4)c3)C(=O)O[C@]12C" , system: UniProt:P21397. Its AC50 is > 30 µM

Sample "CCN(CCCc1ccccc1)CCCc1ccccc1" , system: UniProt:P21397. Its AC50 is > 30 µM

Sample "OC[C@@H](O)[C@@H](O)[C@H](O)[C@@H](O)CO" , system: UniProt:P21397. Its AC50 is > 30 µM

====

Observed AC50 values for Neuronal acetylcholine receptor subunit alpha-4 (Homo sapiens) are listed in what follows.

For orientation, consider the following solved cases.
# COMPOUND, QUANTITY, VALUE
rows = [
    ("CNCc1ccc(-c2[nH]c3cc(F)cc4c3c2CCNC4=O)cc1", "AC50", "> 30 µM"),
    ("C[N@+]1(CCF)[C@@H]2CC[C@H]1C[C@@H](OC(=O)C(O)(c1ccccc1)c1ccccc1)C2", "AC50", "> 30 µM"),
    ("COCC1=C(C(=O)O)N2C(=O)[C@@H](NC(=O)/C(=N\\OC)c3csc(N)n3)[C@H]2SC1", "AC50", "> 30 µM"),
    ("C=C[C@@]1(C)CC(=O)[C@]2(O)[C@@]3(C)[C@@H](O)CCC(C)(C)[C@@H]3[C@H](O)[C@H](OC(C)=O)[C@@]2(C)O1", "AC50", "> 30 µM"),
    ("Oc1ccc2c(c1)CC[C@H](c1ccccc1)[C@@H]2c1ccc(OCCN2CCCC2)cc1", "AC50", "> 30 µM"),
    ("COc1cc2nccc(Oc3ccc(NC(=O)C4(C(=O)Nc5ccc(F)cc5)CC4)cc3)c2cc1OC [CABOZANTINIB]", "AC50", "> 30 µM"),
    ("CCC(C)C(CC)C(N)=O (stereo not drawn) [VALNOCTAMIDE]", "AC50", "> 30 µM"),
    ("CC(=O)O[C@H](CC(=O)[O-])C[N+](C)(C)C", "AC50", "> 30 µM"),
    ("CN1C[C@H](C(=O)N[C@]2(C)O[C@@]3(O)[C@@H]4CCCN4C(=O)[C@H](Cc4ccccc4)N3C2=O)C=C2c3cccc4[nH]cc(c34)C[C@H]21", "AC50", "> 30 µM"),
    ("Cc1cc(C(C)(C)C)cc(C)c1CC1=NCCN1", "AC50", "> 30 µM"),
]

// AC50 value for "Cc1noc(NS(=O)(=O)c2ccc(N)cc2)c1C" : > 10 µM

// AC50 value for "CCCCCCCCCCCCCCCCCCCCCC(=O)Nc1ccn([C@@H]2O[C@H](CO)[C@@H](O)[C@@H]2O)c(=O)n1" : > 30 µM

// AC50 value for "NC(=O)CN1CCCC1=O" : > 30 µM

// AC50 value for COc1ccccc1OCCNCC(O)COc1cccc2[nH]c3ccccc3c12 (stereo not drawn) : > 30 µM

// AC50 value for C#CCOc1ccc(N)cc1C(=O)NCCCC [PARSALMIDE] : > 30 µM

// AC50 value for "CC(=O)N[C@@H](CS)C(=O)O" : > 30 µM

// AC50 value for "CN1CCC(=C2c3ccccc3CCc3cccnc32)CC1" : > 10 µM

// AC50 value for CC(N)C(O)c1ccccc1 (stereo not drawn) : > 10 µM
